# System: CCRIS mutagenicity, Ames/micronucleus/aberration tests
# Protocol: CCRIS mutagenicity studies
# Run Conditions: Test System: AMES SALMONELLA TYPHIMURIUM; Strain/Indicator: TA1535; Metabolic Activation: NONE; Method: PREINCUBATION
Activity calls are given as the source filed them. The rule behind the calls is not given here.
Hello, when you answer, please use one of the following outcomes: TRUE for active, FALSE for inactive

Query: Hi, sorry to bother you, what did the test record for "O=[N+]([O-])c1ccccc1Nc1ccccc1" ?
Result: FALSE

***
Query: Hi, sorry to bother you, what did the test record for "Cc1ccccc1OP(=O)(Oc1ccccc1)Oc1ccccc1" ?
Result: FALSE

Query: Hi, sorry to bother you, what did the test record for "Oc1cc2c(cc1O)[C@@H]1c3ccc(O)c(O)c3OC[C@]1(O)C2" ?
Result: FALSE

Query: Hi, sorry to bother you, what did the test record for "Nc1ccccc1Cl" ?
Result: FALSE

Measured values drawn from PubChem BioAssay AID1259407 for this set.
